experiment: soluble on expression in E. coli; label from the status in PepcDB or PDB records
recordedEndpoint: soluble on expression in E. coli

Give recorded soluble on expression in E. coli. MSHHHAPVDFEKEASILRNHFNNAEIDLLLLIKKHVMYGAKNPTKWKFIQQSRLIRFKRELKAHISLFKDETRNKIDKLTYRVYLDCVNEYEDEMEARYQTKKEVDIQNDDYLSESDALIQISEDMANYWQKIAPSKYKQVVKETKDSNGVLKYAIATSLINVLGDGIRNVIDQSGRKYRPGAYMEMASRGAFFNVGLNAMKRVLGRYEHELVQVSAHVRSCPRCAPWQGEVLSVNYESNEYKTLQEAENDGLFHPNCHHFLYSYFEGDETDEPIPYDEEEYEAQSKQRYYERGIRDWKTKDILAEGPSKQYTAGKVKQWEEALQEHLNNN not soluble

Give recorded soluble on expression in E. coli. MSWKFEEKSPIYAQIAQHVMMQIISQEIKSGDQLPTVREYAEIAGVNPNTMQRAFTELEREGMVYSQRTAGRFVTDDQKLIARKRRELAISELESFITNMTKMGFSHTEIIPVLTSFLKEDSQ not soluble

Give recorded soluble on expression in E. coli. MPNYPFPILWLPPKPLGHLLRNMDFRNLIIFSLTSKPAKWLTELLNMDAPMISVHVDHQINIIVSSVKSVTYHASNGSLRESRGKIDRQINFPGSLKQFVEHLLHIFKEHKIDDLEIMCNSVYQYKPDIQALKGIKMRTLKLRYQESILKMFGTSADRIEFSTIKSAELENSKDILIQNFDYLKFDFEGSLTADNLIGINGKVVNIWAADIEMKDVNIFLKHWLKGSNPRLEKLILKTYRLDTDGNSVEDSVADLFRDLDCESIAESQFEILRDDESIAKISILEHGYWYNKIHCYFSLNEAMNLYTTYFWDIVHLQEKILH not soluble

###

assay: soluble on expression in E. coli; label from the status in PepcDB or PDB records
recordedEndpoint: soluble on expression in E. coli

Give recorded soluble on expression in E. coli. SEIESDPNDGHHHHHRRLHLDLSVDERSPRHGISELLQKLRPEWKPDDIQIKVFTEGITNQLMGCYVGSMTRDPVLLVRVYGQMTELFMDREKEMEMFRVLHKHGCGPQLYCSFNNGICYEFVRGVVLDDTLLHQPSVYRLIATEMGKIHSIKSGDSGARSAVTPVLWSRLSQFLNLLQSADDPEQQRSSADGETPSLEIIMREMEELKSHLARINSPVVLCHNDLLTKNVIYNQEEGAVKFIDYEYADFNYQAYDIGNHFNEFAGIDNVDSSLYPSDELQFDWLSAYLESFKRCSTGDSAVTQTEVQELYEQVCQFSLVAHLFWCLWALLQAKHSTIDFDFQRYARARFNYYFEKKREFCGLTPP soluble

Give recorded soluble on expression in E. coli. MAKQTIIVMSDSHGDSLIVEEVRDRYVGKVDAVFHNGDSELRPDSPLWEGIRVVKGNMDFYAGYPERLVTELGSTKIIQTHGHLFDINFNFQKLDYWAQEEEAAICLYGHLHVPSAWLEGKILFLNPGSISQPRGTIRECLYARVEIDDSYFKVDFLTRDHEVYPGLSKEFSR soluble

###

assay: soluble on expression in E. coli; label from the status in PepcDB or PDB records
recordedEndpoint: soluble on expression in E. coli

Example entries begin here.
Give recorded soluble on expression in E. coli. GPGSMFSCCLRSLARGREPQVLGTAVPSFYNFPYRAQDVLHLYRDLLKLIYQHPPQERADLLFRLRNEFHSRRHLSAPKLISAAIRRGEGILNVQRGLMESRSVRARAVASRERGAQSVDGLWDQLQIVSGHMLPGLRNFSASRGLSRGSYVRQATTQAVYSRRK not soluble

Give recorded soluble on expression in E. coli. MAELRVLVAVKRVIDYAVKIRVKPDRTGVVTDGVKHSMNPFCEIAVEEAVRLKEKKLVKEVIAVSCGPAQCQETIRTALAMGADRGIHVEVPPAEAERLGPLQVARVLAKLAEKEKVDLVLLGKQAIDDDCNQTGQMTAGFLDWPQGTFASQVTLEGDKLKVERAIDGGLETLRLKLPAVVTADLRLNEPRYATLPNIMKAKKKKIEVIKPGDLGVDLTSKLSVISVEDPPQRTAGVKVETTEDLVAKLKEIGRI soluble

Give recorded soluble on expression in E. coli. SNFLEIDIFNPQTVGVGRARFTTYEVRMRTNLPIFKLKESCVRRRYSDFEWLKNELERDSKIVVPPLPGKALKRQLPFRGDEGIFEESFIEERRQGLEQFINKIAGHPLAQNERCLHMFLQEEAIDRNYVPGK soluble

Give recorded soluble on expression in E. coli. MADFARSLSITTPEEMIEKAKGETAYLPCKFTLSPEDQGPLDIEWLISPADNQKVDQVIILYSGDKIYDDYYPDLKGRVHFTSNDLKSGDASINVTNLQLSDIGTYQCKVKKAPGVANKKIHLVVLVK soluble

Give recorded soluble on expression in E. coli. MTDHSNTRVVVGMSGGVDSSVVALLLKQQGYDVVGVFMKNWDDTDENGVCTATEDYKDVAKVADKIGIPYYSINFEKEYWDRVFTYFLDEYKKGRTPNPDVICNKEIKFKAFLDYAMDLGADYIATGHYARLQHDEDGTMHLLRGVDSNKDQTYFLSQLDSKTLQKVMFPLGEMVKPDVRKLALNAGLATAKKKDSVGICFIGEKNFKEFLGHYLPATPGKMMTFDGQVKGEHAGLMYYTIGQRRGLGIGGDGEDNEPWFVVGKDLKKNILYVGKGYHNPHLYATHLKASDLHFVTDEDLGNDFHVTAKFRYRQKDSGVTVHFNDDHTEVTVTFDDPVRAITPGQAVVFYNGEECLGSGMIDAAYNDERVLQYVLEHHHHHH not soluble

Give recorded soluble on expression in E. coli. MENNTILHNYQDWLEHHKMPAGKKKTLVAAIELFSQQGYNGTSTAQIAEKAGISQATIFKYFKTKSDLLSEIMQPMIPELKRDFFPKLQTYTKLEEVVHFIVQDRFQFLTQNADLIKILIQEALVNVKLRKTLLTNIQLTISKDFMAYWQTLKQINPQINPNLSGIEVIRTNVGLLFAYFTQRFILNIPTPSEQKDLLLIEKQILTLLILDTH not soluble

Give recorded soluble on expression in E. coli. GPGSDVFFSGYLNKLKGGDNHSWKKRYLQVQKGHFIMSDKESDTEGKALSLEHIQSVCPVPVSTAKREHVFALHTTSGKSMWFEAASLENMEEWIHAIQCGLGVA soluble

Give recorded soluble on expression in E. coli. MGSFMTDIAVIINNRAKNAHRMEDYLSELRAHDIDYQLYKADPQQLEKNIQHCCSKYPLLLIGGGDGTVRSAAQWCSNTSVILGVLPLGTMNHFSKELNLPSTTEELIAAIVEKTTTTIDVAEVNGH not soluble

Further cases:
Give recorded soluble on expression in E. coli. MGSDKIHHHHHHAHTRAIDNIANSGDMVTMSGTVKLYAKTAQDGGVVNTLTLQVSDFTGLDTGTGSKTVEISGAATYIEVEGNIDGSATKTDDVNSRQGGVTSDAVRVVGGAAIVTGGSTSTCSIEVAPEMARVEVKGDLGSSFTNLAELKVKGIYLNNVKQKRADAAVVKTTKASAPDWTTAYTAGGTKSNLYNTFIGTPITKFDSGKADGYNFFPQDFHIASLSAAATTKEEAAKYHPHVIMEVEYKMNGVGALSKTGWLNVVALKDNTSSSYIGEFANGKVYQLDLADIKKIMDVPVPPVTVDPDPDAVNVDVTVTVKGWELVFIKPEV not soluble

Give recorded soluble on expression in E. coli. MYRLERTQRLPISIDEAWDFFASPDNLKKITPAYMGFDIKSGGGIPMYAGMIIKYTVRPLLGIPMTWVTEITHVEPQRFFVDEQRVGPYAIWHHQHHFKAIENGVEMTDILHYKLPFGILGNLAHPFLVKNKLEEIFNFRNKKMVELFGTYKLEHHHHHH soluble

Give recorded soluble on expression in E. coli. MGSDKIHHHHHHMTIEMKNNKNNNCNFPTLRFPEFSGEWKKDIIGNVISVKSEKYNPHSNRTEFICVELESISQGTGELLETFNSAEQKSIKNKFSPGTVLFGKLRPYLRKFYLPYFEGVCSSEIWVMRSNKIEPAFLYSFIQTPYFISLANQSSGSKMPRADWGLIETSKIAYPPNSAERVKIGKFLKLIDERIATQNKIIAHLESLIKGLTNQLLIPNSNWQPTTIGQVLTINPGKDYKHLKEGNIPVYGTGGYMLSVNDYLYDGESVCIGRKGTINKPIFLTGKFWTIDTLFYTSNFNSLLPRFGYYLFKTIDWLKYNEASGVPSLSKVSIEKIHISLPSLAIQNSICRLLDSIYDKLALEESVLNNHQTQKAFILQQMFI not soluble

Give recorded soluble on expression in E. coli. MGHHHHHHSHEELGLKVGLEIHRQLDTKKLFSPVPTKFSDEVDFTFQRRLRPTMSELGEVDPAALEEFKKGRVFIYEGNYQLTDLVYMDEEPPRGPDKEALEVALQIAYLLNAKPVDEVYYMRKIVIDGSNVSGFQRTAIIATDGKVETPWGTVGIPTICLEEDAARIIERKEKEVIYRLDRLGVPLVEISTTPDIHHPEQAKVVAKFIGDALRATRKVKRGLGTIRQDLNVSIKGGARIEIKGVQELDMIPLIIEREVERQLNLLKIR not soluble

Give recorded soluble on expression in E. coli. MPVQPPSKDTEEMEAEGDSAAEMNGEEEESEEERSGSQTESEEESSEMDDEDYERRRSECVSEMLDLEKQFSELKEKLFRERLSQLRLRLEEVGAERAPEYTEPLGGLQRSLKIRIQVAGIYKGFCLDVIRNKYECELQGAKQHLESEKLLLYDTLQGELQERIQRLEEDRQSLDLSSEWWDDKLHARGSSRSWDSLPPSKRKKAPLVSGPYIVYMLQEIDILEDWTAIKKARAAVSPQKRKSDGP soluble

Give recorded soluble on expression in E. coli. MFTTVITPRVSETDGVGHINNTTVPVWFEAGRHEIFKLFTPDLSFKRWRMVIIRMEVDYVNQMYYGQDVTVYTGIERIGNTSLTIYEEIHQNGVVCAKGRSVYVNFNFDTGRPEPIPDDIRVKLREHVWQPGE soluble
